experiment: folding stability dG unfold from chymotrypsin proteolysis; higher = more stable
Listed next: entries and their corresponding folding stability dG unfold.
Could you write the number and then its unit?

1) SAGGAFPPGEKVEVRIEVVELPGEGTYLLRAYLPGGKLLWERPFPEGELEAFAEEFRSLGFDTVEVTPSAGG [r13_765_TrMRF] = 2.74 kcal/mol
2) SAGGSAGGSKLRLVLKFKTPEEAEEAARKLAEELKKKEGVKEVKVSVVKVNGEYYVVVEVEKESAGGSAGGS [r12_7_TrROS_Hall] = 4.15 kcal/mol

# next sequence below
Give folding stability dG unfold for SAGGSAGGSAGNDVINKKYTYTITETTEEKTPTDDPVSTTITTPIEITVKAPKDEVVIPDSAGGSAGGSAGG [r11_174_JUSTAS]
0.644 kcal/mol

* * *

experiment: folding stability dG unfold from trypsin proteolysis; higher = more stable
assay readout: folding stability dG unfold (kcal/mol)
Write it as a number; the unit kcal/mol goes unstated.

1) SAGGSAGGSAGEKVIRFPFKSPEEIREHIKNGRPIRFPNGKPVKITKIQPYPNGWLWITVSAGGSAGGSAGG [r11_48_TrROS] = 0.89
2) SAGGSAGGSAGGMTVLETEVTTLPNGVVKTTTLYKDPSTGALHTVTEEVYVPLGETALLSAGGSAGGSAGGS [r10_72_JUSTAS] = 0.716
3) SAGGGSHTFKDNGKKIKITVYPPPNGNMRVQLQIYDPDDGKPKPKAIAPFRGGSVEDAIKDLLDAGISAGGS [r16_378_TrROS] = -0.0278
4) SGMDSNPKTTTENISFEEALKRLPSSVTSVEPRGESVVIKQSSPDSLTVVTMTRDPSSDSAPATTTTYLSSA [r9_604_JUSTAS] = 0.304
5) SAGGSAGGSAMELVVKEVEYRGPLSLSIEEIAEEIEKKEGIKVIELEEYPDEKVKITIEKVSAGGSAGGSAG [r3_66_JUSTAS] = -0.463
6) SAGGSAMKGLSVERVELDGEEVVRIEIETPAGGSETLELSLRDPEAVEAYLAALKAAGVIAEILPESAGGSA [r15_575_JUSTAS] = 1.24

// switching to the query sequence
Return the recorded folding stability dG unfold value; entry: SAGGSAGGIKELLEALGFEVVDVEPTDNKFMIMIRNPEEGRVVVIEIEWDGPPKIEIHPMPPNASAGGSAGG [r6_195_TrROS]
2.38

* * *

experiment: folding stability dG unfold from chymotrypsin proteolysis; higher = more stable
Let's look at some sequences and their measured folding stability dG unfold.
Your answer should be a plain number; it is taken to be in kcal/mol.

Sample records with folding stability dG unfold:
1) SNPNEPLTAEEIAKHIEEFMQEEHGIDKIKPEEFTVNPPDGYIKVEMEIEHKNPPGQKHKIDIWIPPDDLSA [r9_1002_TrROS] = 0.0346
2) SAGGSAGGSFELPVPPNTPVDIEATVTRPDGTPATLVDAEPLGDGTFRVTVRYPDGSTETIEVSAGGSAGGS [r12_31_JUSTAS] = 0.959

Please report folding stability dG unfold for the following sequence: SAGGGSMTTVRLTREINLPSSVSDEEIIEEIKEELPENYEILEVKIEKDPKTGKYYIEAEVKIPKLGSAGGS [r16_396_JUSTAS]
2.27

Every entry's value here was drawn from the supplement of paper PMC12764529.
